Test system: HepG2
TEST_SUMMARY: cytotoxicity call (relative viability < 0.9)
CONDITION_DESCRIPTION: 10 µM
Hit rate of the full screen: of about 39,000 compounds, about 3,300 (8.5%) were called active. This is one part of a sample in which actives are shown more often than they occur.
ASSAY_READOUT: cytotoxicity call

[[record]]
chemical_structure = "Cc1noc(C)c1S(=O)(=O)Nc1ccc2c(c1)C(=O)N([C@@H](C)CO)C[C@H](C)[C@@H](CN(C)Cc1ccc(C(F)(F)F)cc1)OCCCC[C@@H](C)O2"
test_system = "HepG2"
assay_readout = "cytotoxicity call"
reading = "inactive"

[[record]]
chemical_structure = "Cc1noc(C)c1S(=O)(=O)Nc1ccc2c(c1)C(=O)N([C@H](C)CO)C[C@@H](C)[C@@H](CN(C)Cc1ccc(C(F)(F)F)cc1)OCCCC[C@@H](C)O2"
test_system = "HepG2"
assay_readout = "cytotoxicity call"
reading = "inactive"

[[record]]
chemical_structure = "Cc1noc(C)c1S(=O)(=O)Nc1ccc2c(c1)C(=O)N([C@H](C)CO)C[C@H](C)[C@H](CN(C)Cc1ccc(C(F)(F)F)cc1)OCCCC[C@H](C)O2"
test_system = "HepG2"
assay_readout = "cytotoxicity call"
reading = "inactive"


====

Test system: HepG2
TEST_SUMMARY: cytotoxicity call (relative viability < 0.9)
CONDITION_DESCRIPTION: 10 µM
Out of some 39,000 compounds screened, about 3,300 (8.5%) were called active. The entries come from a sample that favours actives as a whole.
Possible outcomes: active, inactive

[[record]]
chemical_structure = "C[C@@H]1CN([C@H](C)CO)C(=O)c2cc(NC(=O)Cc3cn(C)c4ccccc34)ccc2O[C@H]1CN(C)Cc1ccc(-c2ccccc2)cc1"
label = "inactive"

[[record]]
chemical_structure = "C[C@H]1CN([C@@H](C)CO)C(=O)c2cc(NC(=O)Cc3cn(C)c4ccccc34)ccc2O[C@@H]1CN(C)Cc1ccc(-c2ccccc2)cc1"
label = "active"

[[record]]
chemical_structure = "CC(C)C[C@H](N)C(=O)N[C@@H](C)C(=O)O"
label = "active"

[[record]]
chemical_structure = "C[C@H]1CN([C@@H](C)CO)C(=O)c2cc(NC(=O)Cc3cn(C)c4ccccc34)ccc2O[C@H]1CN(C)Cc1ccc(-c2ccccc2)cc1"
label = "inactive"

[[record]]
chemical_structure = "CC(C)NC(=O)N[C@H]1C=C[C@@H](CC(=O)NCCCN(C)C)O[C@@H]1CO"
label = "inactive"

[[record]]
chemical_structure = "C[C@@H]1CN([C@H](C)CO)C(=O)c2cc(NC(=O)Cc3cn(C)c4ccccc34)ccc2O[C@@H]1CN(C)Cc1ccc(-c2ccccc2)cc1"
label = "inactive"

[[record]]
chemical_structure = "C[C@H]1CN([C@@H](C)CO)C(=O)c2cccc(NS(C)(=O)=O)c2O[C@@H]1CN(C)Cc1ccc(C(=O)O)cc1"
label = "inactive"

[[record]]
chemical_structure = "C[C@H]1CN([C@@H](C)CO)C(=O)c2cc(NC(=O)CCCCCC(=O)Nc3ccccc3N)ccc2O[C@@H]1CN(C)C(=O)Nc1ccc(F)cc1"
label = "inactive"

[[record]]
chemical_structure = "COc1ccccc1CNC(=O)C[C@@H]1C[C@@H]2c3cc(NC(=O)c4ccc5c(c4)OCO5)ccc3O[C@@H]2[C@@H](CO)O1"
label = "inactive"

[[record]]
chemical_structure = "Cc1noc(C)c1NC(=O)Nc1ccc2c(c1)C(=O)N([C@@H](C)CO)C[C@H](C)[C@@H](CN(C)C(=O)NC(C)C)O2"
label = "inactive"


====

System: HepG2
TEST_SUMMARY: cytotoxicity call (relative viability < 0.9)
CONDITION_DESCRIPTION: 10 µM
The campaign covered roughly 39,000 compounds. About 3,300 (8.5%) were called active. This is one part of a sample in which actives are shown more often than they occur.
ASSAY_READOUT: cytotoxicity call

[[record]]
chemical_structure = "C[C@H]1CN([C@@H](C)CO)S(=O)(=O)c2ccc(C#CC(C)(C)O)cc2O[C@H]1CN(C)Cc1ccccc1"
reading = "inactive"

[[record]]
chemical_structure = "C[C@@H]1CN([C@@H](C)CO)C(=O)c2cc(NS(=O)(=O)c3cccs3)ccc2O[C@@H]1CN(C)S(=O)(=O)c1cccs1"
reading = "inactive"

[[record]]
chemical_structure = "CNC(=O)C[C@H]1CC[C@H]2[C@@H](COC[C@H](O)CN2C(=O)Nc2ccc3c(c2)OCO3)O1"
reading = "inactive"

[[record]]
chemical_structure = "N=C(N=C(N)N)N1CCOCC1"
reading = "inactive"

[[record]]
chemical_structure = "C[C@H]1CN([C@@H](C)CO)C(=O)Cc2cc(NC(=O)Nc3cccc4ccccc34)ccc2O[C@@H]1CN(C)CC1CCCCC1"
reading = "active"

[[record]]
chemical_structure = "C=CC(=O)Nc1cccc(Nc2nc(Nc3ccc(NC4CN(CCF)C4)cc3OC)ncc2C(F)(F)F)c1"
reading = "active"

[[record]]
chemical_structure = "CC(C)/C=C1\\CC/C(=C\\c2ccc(C(F)(F)F)cc2)C1=O"
reading = "active"

[[record]]
chemical_structure = "C[C@H](CO)N1C[C@H](C)[C@H](CN(C)Cc2ccc(Oc3ccccc3)cc2)Oc2ccc(NS(=O)(=O)c3ccc(Cl)cc3)cc2CC1=O"
reading = "active"

[[record]]
chemical_structure = "C[C@H](CO)N1C[C@H](C)[C@H](CN(C)CC2CCCCC2)Oc2ccc(NC(=O)Nc3cccc4ccccc34)cc2CC1=O"
reading = "inactive"

[[record]]
chemical_structure = "C[C@@H]1CN([C@@H](C)CO)C(=O)c2cc(NC(=O)Nc3ccc(C(F)(F)F)cc3)ccc2O[C@@H]1CN(C)Cc1ccc(C(=O)O)cc1"
reading = "inactive"

[[record]]
chemical_structure = "C[C@H](CO)N1C[C@H](C)[C@@H](CN(C)Cc2ccc(C(=O)O)cc2)Oc2ccc(NC(=O)Nc3ccc(C(F)(F)F)cc3)cc2C1=O"
reading = "inactive"

[[record]]
chemical_structure = "Cc1ccc(S(=O)(=O)N(C)C[C@@H]2OCCCC[C@H](C)Oc3ccc(NC(=O)C4CCCCC4)cc3C(=O)N([C@H](C)CO)C[C@@H]2C)cc1"
reading = "inactive"

[[record]]
chemical_structure = "C[C@H](NC(=O)N(C)C[C@@H]1OCc2ccccc2-c2ccccc2C(=O)N([C@H](C)CO)C[C@@H]1C)c1ccccc1"
reading = "inactive"

[[record]]
chemical_structure = "c1cnc2c(SCc3nc4ccccc4s3)cccc2c1"
reading = "active"

[[record]]
chemical_structure = "C[C@@H]1CN([C@@H](C)CO)C(=O)Cc2cc(NS(=O)(=O)c3ccc(Cl)cc3)ccc2O[C@@H]1CN(C)Cc1ccc(Oc2ccccc2)cc1"
reading = "active"

[[record]]
chemical_structure = "CCSc1cccc2cccnc12"
reading = "inactive"

[[record]]
chemical_structure = "C[C@H]1CCCCO[C@H](CN(C)CC2CC2)[C@@H](C)CN([C@@H](C)CO)C(=O)c2cc(NC(=O)CCC(F)(F)F)ccc2O1"
reading = "inactive"

[[record]]
chemical_structure = "C[C@@H]1CN([C@H](C)CO)C(=O)Cc2cc(NS(=O)(=O)c3ccc(Cl)cc3)ccc2O[C@H]1CN(C)Cc1ccc(Oc2ccccc2)cc1"
reading = "active"

[[record]]
chemical_structure = "C[C@H](CO)N1C[C@H](C)[C@@H](CN(C)CC2CCCCC2)Oc2ccc(NC(=O)Nc3cccc4ccccc34)cc2CC1=O"
reading = "inactive"

[[record]]
chemical_structure = "C[C@@H]1CN([C@@H](C)CO)S(=O)(=O)c2ccc(C#Cc3ccncc3)cc2O[C@H]1CN(C)C(=O)C1CCC1"
reading = "active"

[[record]]
chemical_structure = "C[C@H]1CN([C@@H](C)CO)C(=O)Cc2cc(NS(=O)(=O)c3ccc(Cl)cc3)ccc2O[C@H]1CN(C)Cc1ccc(Oc2ccccc2)cc1"
reading = "active"

[[record]]
chemical_structure = "CCO[C@@H]1OC(C(=O)N2CCN(Cc3ccccc3)CC2)=C[C@H](c2cn(C(C)=O)c3ccccc23)[C@H]1CCCOC(=O)NCCCCCC(=O)NO"
reading = "inactive"

[[record]]
chemical_structure = "COc1ccc(NC(=O)N(C)C[C@H]2OCCCC[C@@H](C)Oc3ccc(NS(=O)(=O)c4cccs4)cc3C(=O)N([C@H](C)CO)C[C@@H]2C)cc1"
reading = "inactive"

[[record]]
chemical_structure = "O=C1/C(=C/c2cccs2)CCC/C1=C\\c1cccs1"
reading = "inactive"

[[record]]
chemical_structure = "C[C@@H]1CN([C@@H](C)CO)C(=O)c2cc(NS(=O)(=O)c3cn(C)cn3)ccc2O[C@@H](C)CCCCO[C@H]1CN(C)C(=O)c1ccncc1"
reading = "inactive"

[[record]]
chemical_structure = "COc1ccc(CCNC(=O)[C@@]2(Sc3ccc(C)cc3)CC(=O)N(Cc3ccccc3C(F)(F)F)[C@@H]2c2ccc(CO)cc2I)cc1"
reading = "inactive"

[[record]]
chemical_structure = "C[C@@H]1CN([C@@H](C)CO)C(=O)Cc2cc(NC(=O)Nc3cccc4ccccc34)ccc2O[C@H]1CN(C)CC1CCCCC1"
reading = "inactive"

